Origin of values: paper PMC6362307

# studySystem: Human DPP2 (Homo sapiens, UniProt Q9UHL4)
# protocolSummary: biochemical
# conditionDetails: Ic50, calibration curve in medium
pIC50: −log10 of the molar value.
observable: pIC50

- N[C@@H](CCNCc1ccc(Cl)cc1)C(=O)N1CCCCC1: 8.01
